# tested.system: T1, full-length beta-Catenin (Uniprot ID P35222) (Homo sapiens (Human), UniProt P35222 2-781)
# T1 construct: Given as 'full-length beta-Catenin (Uniprot ID P35222)' in the fluorescence polarization protocol; also called bCat; B-Catenin
# T1 sequence: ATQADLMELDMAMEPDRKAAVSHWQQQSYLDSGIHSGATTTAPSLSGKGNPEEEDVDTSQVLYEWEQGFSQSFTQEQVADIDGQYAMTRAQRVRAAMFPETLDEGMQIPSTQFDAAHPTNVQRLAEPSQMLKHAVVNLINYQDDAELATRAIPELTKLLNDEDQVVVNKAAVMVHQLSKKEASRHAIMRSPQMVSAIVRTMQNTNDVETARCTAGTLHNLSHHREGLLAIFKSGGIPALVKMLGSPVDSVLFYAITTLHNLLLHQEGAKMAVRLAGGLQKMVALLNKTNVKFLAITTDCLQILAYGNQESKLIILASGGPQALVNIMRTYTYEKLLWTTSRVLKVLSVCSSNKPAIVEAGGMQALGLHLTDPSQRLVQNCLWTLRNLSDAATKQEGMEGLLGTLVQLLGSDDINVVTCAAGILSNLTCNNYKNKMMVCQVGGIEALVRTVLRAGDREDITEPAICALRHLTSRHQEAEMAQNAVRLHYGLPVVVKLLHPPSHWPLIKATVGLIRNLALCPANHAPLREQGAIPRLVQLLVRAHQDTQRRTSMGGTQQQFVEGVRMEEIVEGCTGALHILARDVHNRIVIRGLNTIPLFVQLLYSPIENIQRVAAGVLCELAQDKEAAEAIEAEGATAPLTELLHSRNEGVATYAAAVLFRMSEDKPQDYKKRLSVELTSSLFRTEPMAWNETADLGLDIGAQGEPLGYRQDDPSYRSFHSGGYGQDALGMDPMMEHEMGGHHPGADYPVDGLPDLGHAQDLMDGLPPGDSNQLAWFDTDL
# experimental.protocol: fluorescence polarization competition; full-length beta-catenin, competitor 5FAM-TCF4 10-53 probe
pIC50: −log10 of the molar value. Starred links: 1 amine or outer side, 2 acyl side, 3 side chain; linkers in the order of their positions; H or OH if unused. Positions of bridges follow the written chain, without caps; N, C: chain ends. Non-standard residues stand in square brackets, D forms with d. Primed or numbered codes have the meaning given here. PyrS2 = (S)-3-amino-1-((pent-4-en-1-yloxy)carbonyl)pyrrolidine-3-carboxylic acid, C=CCCCOC(=O)N1CC[C@@](N[*:1])(C(=O)[*:2])C1; B5(19) = 2-amino-2-(pent-4-en-1-yl)hept-6-enoic acid (bis(4-pentenyl)glycine), C=CCCCC(CCCC=C)(N[*:1])C(=O)[*:2]; Bta = N[C@@H](Cc1csc2ccccc12)C(=O)O; αAllylPro = C=CC[C@@]1(C(=O)O)CCCN1
parameter.measured: pIC50

> print(dat)
                                     binder  observed.measurement
1  Ac-[αAllylPro]DL[B5(19)]DDAAFL[PyrS2]F[Bta]Q-NH2 (staple 1-4, 4-11) [I-1402]                  8.05

From: patent US20240116985A1
